test system: MCF7; test: Induction of apoptosis in human MCF7 cells assessed as viable cells at 5 uM after 72 hrs by annexin V-FITC/propidium iodide staining-based flow cytometric method (reference value: 76%); assay type: functional; conditions: MCF7, 72 h, read-out: Activity
readout: viability at 5 µM

Consider the worked cases shown below.
> print(dat)
                                   molecule  result
1  COc1ccc(CCN2CCC(Nc3nc4nc5ccc(C)cc5nc4c(=O)[nH]3)CC2)cc1   64.1%
2  CC(Nc1nc2nc3ccccc3nc2c(=O)[nH]1)c1ccccc1 (stereo not given)   71.2%
3  O=c1[nH]c(NCc2ccc(CN3CCOCC3)cc2)nc2nc3ccc(Cl)cc3nc12   74.1%

Query string: Output viability at 5 µM of COc1ccc2nc3nc(NCc4ccc(CN(C)C)cc4)[nH]c(=O)c3nc2c1
Result string: 67.4%

Query string: Output viability at 5 µM of COc1ccc2nc3nc(NCc4ccc(CN5CCN(C)CC5)cc4)[nH]c(=O)c3nc2c1
Result string: 72.3%

---

tested on: MCF7; test: Induction of apoptosis in human MCF7 cells assessed as necrotic cells at 5 uM after 72 hrs by annexin V-FITC/propidium iodide staining-based flow cytometric method (reference value: 12.6%); format: functional
Activity below 8% gives No; Activity at or above it gives Yes.

Before answering, review these 4 worked examples.
> print(dat)
                                   molecule  system.name  label
1  COc1ccc(CCN2CCC(Nc3nc4nc5ccc(C)cc5nc4c(=O)[nH]3)CC2)cc1         MCF7     No
2  CC(Nc1nc2nc3ccccc3nc2c(=O)[nH]1)c1ccccc1 (stereo not given)         MCF7     No
3  O=c1[nH]c(NCc2ccc(CN3CCOCC3)cc2)nc2nc3ccc(Cl)cc3nc12         MCF7     No
4  COc1ccc2nc3nc(NCc4ccc(CN5CCN(C)CC5)cc4)[nH]c(=O)c3nc2c1         MCF7    Yes

Query string: Activity >= 8% for COc1ccc2nc3nc(NCc4ccc(CN(C)C)cc4)[nH]c(=O)c3nc2c1 ?
Result string: No

---

molecular target: Cyclin-dependent kinase 16 (Homo sapiens) (UniProt Q00536); test: Inhibition of CDK16 (unknown origin) at 10 uM by [33P]-ATP radiometric assay
Sequence (Q00536 whole entry): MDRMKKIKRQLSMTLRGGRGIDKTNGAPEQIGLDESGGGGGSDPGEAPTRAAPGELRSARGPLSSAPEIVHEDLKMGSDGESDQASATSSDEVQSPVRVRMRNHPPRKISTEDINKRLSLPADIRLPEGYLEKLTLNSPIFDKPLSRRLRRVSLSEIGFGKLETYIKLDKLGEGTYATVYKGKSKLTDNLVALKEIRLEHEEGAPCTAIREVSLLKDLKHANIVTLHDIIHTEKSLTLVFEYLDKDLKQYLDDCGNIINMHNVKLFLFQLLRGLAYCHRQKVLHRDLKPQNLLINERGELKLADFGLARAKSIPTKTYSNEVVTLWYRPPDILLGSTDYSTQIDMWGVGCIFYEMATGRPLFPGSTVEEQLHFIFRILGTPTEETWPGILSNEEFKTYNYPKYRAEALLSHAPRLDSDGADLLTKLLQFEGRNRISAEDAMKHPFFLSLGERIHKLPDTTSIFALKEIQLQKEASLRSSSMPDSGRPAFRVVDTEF
readout: inhibition (%)
Enter your answer as a number in %; do not include the unit.

> print(dat)
                              record.smiles  quantitative.result
1  COc1ccc(CCN2CCC(Nc3nc4nc5ccc(C)cc5nc4c(=O)[nH]3)CC2)cc1                   18

Query string: Output inhibition of Cc1ccc2nc3nc(NCc4ccc(CN5CCN(C)CC5)cc4)[nH]c(=O)c3cc2c1
Result string: -1

Query string: Output inhibition of COc1ccc2nc3nc(NCc4ccc(CN5CCN(C)CC5)cc4)[nH]c(=O)c3nc2c1
Result string: 12

Query string: Output inhibition of Cc1ccc(NC(=O)c2ccc(CN3CCN(C)CC3)cc2)cc1Nc1nccc(-c2cccnc2)n1
Result string: 10

Query string: Output inhibition of O=c1[nH]c(NCc2ccc(CN3CCCCC3)cc2)nc2nc3ccccc3cc12
Result string: -5

Query string: Output inhibition of CN1CCN(Cc2ccc(CNc3nc4nc5ccc(Cl)cc5cc4c(=O)[nH]3)cc2)CC1
Result string: 11

---

The entries below are paired with their reported Activity.
system: MCF7; assay: Induction of apoptosis in human MCF7 cells assessed as early apoptotic cells at 5 uM after 72 hrs by annexin V-FITC/propidium iodide staining-based flow cytometric method (reference value: 9%); assay type: functional
Enter your answer as a number in %; do not include the unit.

> print(dat)
                                   molecule  quantitative.result
1  COc1ccc2nc3nc(NCc4ccc(CN(C)C)cc4)[nH]c(=O)c3nc2c1                   17

Query string: Output Activity of COc1ccc(CCN2CCC(Nc3nc4nc5ccc(C)cc5nc4c(=O)[nH]3)CC2)cc1
Result string: 18

Query string: Output Activity of O=c1[nH]c(NCc2ccc(CN3CCOCC3)cc2)nc2nc3ccc(Cl)cc3nc12
Result string: 14

Query string: Output Activity of CC(Nc1nc2nc3ccccc3nc2c(=O)[nH]1)c1ccccc1 (stereo not given)
Result string: 14.1

Query string: Output Activity of COc1ccc2nc3nc(NCc4ccc(CN5CCN(C)CC5)cc4)[nH]c(=O)c3nc2c1
Result string: 5

---

The entries below are paired with their reported Activity.
tested on: MCF7; test: Induction of apoptosis in human MCF7 cells assessed as necrotic cells at 10 uM after 72 hrs by annexin V-FITC/propidium iodide staining-based flow cytometric method (reference value: 12.6%); assay type: functional
Enter your answer as a number in %; do not include the unit.

Consider the worked cases shown below.
> print(dat)
                                   molecule   readout  quantitative.result
1  CC(Nc1nc2nc3ccccc3nc2c(=O)[nH]1)c1ccccc1 (stereo not given)  Activity                  7.9
2  COc1ccc2nc3nc(NCc4ccc(CN5CCN(C)CC5)cc4)[nH]c(=O)c3nc2c1  Activity                 16.3

Query string: Output Activity of COc1ccc(CCN2CCC(Nc3nc4nc5ccc(C)cc5nc4c(=O)[nH]3)CC2)cc1
Result string: 4.8

Query string: Output Activity of COc1ccc2nc3nc(NCc4ccc(CN(C)C)cc4)[nH]c(=O)c3nc2c1
Result string: 5.9

Query string: Output Activity of O=c1[nH]c(NCc2ccc(CN3CCOCC3)cc2)nc2nc3ccc(Cl)cc3nc12
Result string: 6.3

---

biological target: Receptor tyrosine-protein kinase erbB-2 (Homo sapiens); assay: Inhibition of HER2 (unknown origin) at 10 uM by [33P]-ATP radiometric assay
The entries below are paired with their reported inhibition.
# output: number + unit

Consider the worked cases shown below.
> print(dat)
                              record.smiles  result
1  COc1ccc2nc3nc(NCc4ccc(CN5CCN(C)CC5)cc4)[nH]c(=O)c3nc2c1     -2%
2  CN1CCN(Cc2ccc(CNc3nc4nc5ccc(Cl)cc5cc4c(=O)[nH]3)cc2)CC1      8%
3  Cc1ccc2nc3nc(NCc4ccc(CN5CCN(C)CC5)cc4)[nH]c(=O)c3cc2c1      4%

Query molecule follows.
Query string: Output inhibition of O=c1[nH]c(NCc2ccc(CN3CCCCC3)cc2)nc2nc3ccccc3cc12
Result string: 33%

---

The entries below are paired with their reported inhibition.
molecular target: Protein kinase C beta type (Homo sapiens); assay: Inhibition of PCK-beta2 (unknown origin) at 10 uM by [33P]-ATP radiometric assay
Enter your answer as a number in %; do not include the unit.

Consider the worked cases shown below.
> print(dat)
                              record.smiles     readout  readout.unit  quantitative.result
1  Cc1ccc(NC(=O)c2ccc(CN3CCN(C)CC3)cc2)cc1Nc1nccc(-c2cccnc2)n1  inhibition             %                   10
2  O=c1[nH]c(NCc2ccc(CN3CCCCC3)cc2)nc2nc3ccccc3cc12  inhibition             %                    4
3  CN1CCN(Cc2ccc(CNc3nc4nc5ccc(Cl)cc5cc4c(=O)[nH]3)cc2)CC1  inhibition             %                    5
4  Cc1ccc2nc3nc(NCc4ccc(CN5CCN(C)CC5)cc4)[nH]c(=O)c3cc2c1  inhibition             %                    3
5  COc1ccc2nc3nc(NCc4ccc(CN5CCN(C)CC5)cc4)[nH]c(=O)c3nc2c1  inhibition             %                   -7

Query compound follows.
Query string: Output inhibition of COc1ccc(CCN2CCC(Nc3nc4nc5ccc(C)cc5nc4c(=O)[nH]3)CC2)cc1
Result string: 7

---

molecular target: Fibroblast growth factor receptor 1 (Homo sapiens); assay: Inhibition of FGFR1 (unknown origin) at 10 uM by [33P]-ATP radiometric assay
The entries below are paired with their reported inhibition.
Enter your answer as a number in %; do not include the unit.

> print(dat)
                              record.smiles  quantitative.result
1  CN1CCN(Cc2ccc(CNc3nc4nc5ccc(Cl)cc5cc4c(=O)[nH]3)cc2)CC1                   37
2  Cc1ccc(NC(=O)c2ccc(CN3CCN(C)CC3)cc2)cc1Nc1nccc(-c2cccnc2)n1                    1

Query string: Output inhibition of COc1ccc(CCN2CCC(Nc3nc4nc5ccc(C)cc5nc4c(=O)[nH]3)CC2)cc1
Result string: 1

Query string: Output inhibition of Cc1ccc2nc3nc(NCc4ccc(CN5CCN(C)CC5)cc4)[nH]c(=O)c3cc2c1
Result string: 50

Query string: Output inhibition of O=c1[nH]c(NCc2ccc(CN3CCCCC3)cc2)nc2nc3ccccc3cc12
Result string: -4

Query string: Output inhibition of COc1ccc2nc3nc(NCc4ccc(CN5CCN(C)CC5)cc4)[nH]c(=O)c3nc2c1
Result string: 8

Where these numbers come from: ChEMBL document CHEMBL4152228
